- tested-on: OsSMF1 (Oryza sativa, UniProt Q6ZLB0 1-436)
- Sequence: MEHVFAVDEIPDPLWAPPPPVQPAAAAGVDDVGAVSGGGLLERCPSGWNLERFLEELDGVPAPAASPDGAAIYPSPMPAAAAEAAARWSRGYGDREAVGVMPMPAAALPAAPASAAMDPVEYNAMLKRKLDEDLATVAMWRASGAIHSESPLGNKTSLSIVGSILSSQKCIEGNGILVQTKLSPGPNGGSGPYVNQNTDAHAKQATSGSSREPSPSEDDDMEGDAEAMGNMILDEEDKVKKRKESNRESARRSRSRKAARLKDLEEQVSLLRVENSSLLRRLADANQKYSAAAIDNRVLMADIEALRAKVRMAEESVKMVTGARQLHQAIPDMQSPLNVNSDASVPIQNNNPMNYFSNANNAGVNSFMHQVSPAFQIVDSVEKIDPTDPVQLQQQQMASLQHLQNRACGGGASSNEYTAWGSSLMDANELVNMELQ
- assay-method-text: protein-binding microarray (RPBM); PBS, 2% BSA, 51.3 ng/ul salmon testes DNA, 50 uM zinc acetate, 200 nM TF, 25 C, 1 h; high values mean tight binding
- condition-details: protein: recombinant; tags: N-terminal polyhistidine and DsRed monomer fusion (pET32a); chain copies: 2; label: CyDye5-dUTP incorporated in the synthesized complementary strand; 3' TTTTT single-stranded linker to array surface; dsDNA, one strand shown
In all, about 39,000 sequences were measured (“fluorescence intensity (a.u.)”: median about 4,300, highest 2% from about 39,000 on). The sample as a whole holds a higher share of the highest values than the screen did.
measurement-label: binding signal

Worked cases, binding signal given:
sequence-text	binding signal
TCTCCCCAGATTTCCCCTTCCATTCCGCCTCCCGATCGCTCGGAGTCACCTAGTGCAG	43300 fluorescence intensity (a.u.)
CCACCTAACACTAATCAACCAGTCAACCACCACATCTTCCCGGAGTCACCTAGTGCAG	3820 fluorescence intensity (a.u.)
CTTCAGTCCTCGGCCCATTCTCCCTTCCTTTCAGCTGGCTCGGAGTCACCTAGTGCAG	45600 fluorescence intensity (a.u.)
CGCCCAGGACGTCATGCCGGAGCTGGCCATGGTCACCGCGCGGAGTCACCTAGTGCAG	4070 fluorescence intensity (a.u.)
GTGTGTGTGTGTGCTGCGTGTGCGTGTGCGCGCGCGTGCCCGGAGTCACCTAGTGCAG	5210 fluorescence intensity (a.u.)

Below are some sequences; for each one, tell me its binding signal.
1. GATCATGAGCTCCACGGCGGCCAACGTGGCGGCGCCGACGCGGAGTCACCTAGTGCAG
2. GCGCCACGTAGACGCCACGTCAGCCAAAACCGCCCTCCATCGGAGTCACCTAGTGCAG
3. CGCTCCGTCAGCCACGTAGACGCTACGTCGGCCAAAACCGCGGAGTCACCTAGTGCAG
4. GTCAAAACCGCCACGTAGACGCCACGTCATCGAAACCGCCCGGAGTCACCTAGTGCAG
5. GGCCCCACATGTCATCTCCTCCCTTTCTTCTTCCTCCCCTCGGAGTCACCTAGTGCAG

1: 8640 fluorescence intensity (a.u.); 2: 52000 fluorescence intensity (a.u.); 3: 14900 fluorescence intensity (a.u.); 4: 40400 fluorescence intensity (a.u.); 5: 4040 fluorescence intensity (a.u.)
